Below, each entry is listed alongside its reported binding signal.
systemName: TDP-43 (Homo sapiens, UniProt Q13148 1-414)
Sequence (Q13148 whole entry): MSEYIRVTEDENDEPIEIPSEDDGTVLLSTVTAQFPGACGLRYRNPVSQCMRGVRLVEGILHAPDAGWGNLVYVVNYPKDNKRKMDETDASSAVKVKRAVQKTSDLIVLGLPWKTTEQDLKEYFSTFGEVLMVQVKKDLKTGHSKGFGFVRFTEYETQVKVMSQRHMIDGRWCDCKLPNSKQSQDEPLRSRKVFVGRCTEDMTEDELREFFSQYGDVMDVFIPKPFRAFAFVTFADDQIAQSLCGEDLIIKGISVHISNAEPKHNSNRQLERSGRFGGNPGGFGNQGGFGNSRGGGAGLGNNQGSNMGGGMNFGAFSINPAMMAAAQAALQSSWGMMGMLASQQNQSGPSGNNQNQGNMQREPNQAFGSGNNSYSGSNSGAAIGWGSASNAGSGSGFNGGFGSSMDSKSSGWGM
methodDescription: RNA Bind-n-Seq with designed 260-mer pool; 25 mM Tris-HCl, 150 mM KCl, 3 mM MgCl2, BSA (printed 500 mg/mL), 20 units/mL SUPERase IN; pH not stated; 500 nM RNA pool, 1 h, 4 C; TDP-43 5, 50, 500 nM; high values mean tight binding
experimentalSetup: protein: recombinant; tags: SBP (GST cleaved off with PreScission; pGEX-GST-SBP)
The full ranking holds about 9,900 sequences; the median of “r (bound/input frequency ratio)” is about 0.7, and the highest 2% start at about 6.5. For the sample, the highest values were picked, then their nearest neighbours and some sequences at random.

binder	binding signal
ENSMUSG00000090935.538|Synj2bp|26:32 (ssRNA) RNA: GGGAGUUCUACAGUCCGACGAUCGCUUCGAUAUCCGCAUGCUAAAUGGCAAGGAGGAUAAAACACUGUACACACAUGUAUUGUUGAUCUAAAUAAAAAAUAUCAUUGGUAGAAGUUUUACUUUGGUUGAUAAGGAUUCUGAUAACAUUUGGGUCUCCUUAGGAAAGAAACACUUAACUAAAACAUUUAAGUUUUAGGCAAAUACUGUAAUAUUUCACUCUUAGUUAUAUGAAAACUAAAUGAGAUGUUGAGAAUCUAUAUAGAUUAUUCAAAUUUUAUGUUUCUUAUAGACUGACUCAAAUAUCUCUUGCGGUCGCACUAGUGUGGAAUUCUCGGGUGUCAAGG	0.0361 R (bound/input frequency ratio)
ENSMUSG00000028439.233|Fam219a (ssRNA) RNA: GGGAGUUCUACAGUCCGACGAUCGCUUCGAUAUCCGCAUGCUACACCGACAGAGUCUUUUCAUACCAGAAGGAAUUUCUUCACAGGAGUUUCUGCAAAAGACUAUGACAUCUGUGUGUCUGUGGUCUCACGAGGUACCUGGAGGUGUAUGUGCACGGACAUGGGAAGUACGUGAAGAUUUAUUUCGGGAAAAGUGGUGUGUGUGUAGCUGUACUGGGUGUCAUGUAUGCUGUUGCUUCUGCUGCUGGUCUGGUCUGAGGGAGGAAAGCUGAGGCUGUAGCUCAGUGAGAUGGUGGCUCUCCCACUCUUGCGGUCGCACUAGUGUGGAAUUCUCGGGUGUCAAGG	3.93 R (bound/input frequency ratio)
